B1: LINE1-full (parent)
chain: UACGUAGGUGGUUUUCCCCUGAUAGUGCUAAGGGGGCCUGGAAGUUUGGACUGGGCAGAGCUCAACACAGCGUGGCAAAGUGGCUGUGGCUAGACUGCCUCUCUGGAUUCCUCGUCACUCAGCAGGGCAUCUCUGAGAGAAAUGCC

Variants of: B1
Assay: self-cleavage, relative activity (ratio to wild type); higher = more cleavage; in vitro, sequencing; the parent is a self-cleaving ribozyme
reported_metric: self-cleavage
Form field (numeric): enter value without unit.

[[record]]
seq = "UACGUAGGUGGUUUUCCCCUGAUAGUGCUAGGGGGGCCUGGAAGUUUGGACUGGGCAGAGCUCAACACAGCGUGGCAAAGUGGCUGUGGCUAGACUGCCUCUCUGGAUUCCUCGUCACUCAGCAGGGCGUCUCUGAGAGAAAUGCC"
reported_metric = "self-cleavage"
value_reported = 1.05

[[record]]
seq = "UACGUAGGUGGUUUUCCCCUGAUAGUGCUAAGGGGGCCUGGAAGUUUGGACUGGGCAGAGCUCAACACAGCGUGGCAAAGUGGCUGUGGCUAGACUGCCUCUCUGGAUUCCUCGUCACUCUGCAGGACAUCUCUGAGAGAAAUGCC"
reported_metric = "self-cleavage"
value_reported = 0.76

[[record]]
seq = "UACGUAGGUGGUUUUCCCUUGAUAGUGCUAAGGGGGCCUGGAAGUUUGGACUGGGCAGAGCUCAACACAGCGUGGCAAAGUGGCUGUGGCUAGACUGCCUCUCUGGAUUCCUCGUCACUCAGCAGGGCACCUCUGAGAGAAAUGCC"
reported_metric = "self-cleavage"
value_reported = 1.08

[[record]]
seq = "UACGUAGGUGGUUUUCCCCUGAUAGUGCUAAGGGGGCCUGGAAGUUUGGACUAGGCAGAGCUCAACACAGCGUGGCAAAGUGGCAGUGGCUAGACUGCCUCUCUGGAUUCCUCGUCACUCAGCAGGGCAUCUCUGAGAGAAAUGCC"
reported_metric = "self-cleavage"
value_reported = 0.14

[[record]]
seq = "UACGUAGGUGGUUUUCCCCUGAUAGUGCUAAGGGGGCCAGGAAGUUUGGACUUGGCAGAGCUCAACACAGCGUGGCAAAGUGGCUGUGGCUAGACUGCCUCUCUGGAUUCCUCGUCACUCAGCAGGGCAUCUCUGAGAGAAAUGCC"
reported_metric = "self-cleavage"
value_reported = 1.63


self-cleavage in this record for UACGUAAGUGGUUUUCCCCUGAUAGUGCUAAGGGGGCCUGGAAGUUUGGACUGGGCAGAGCUCAACACAGCGAGGCAAAGUGGCUGUGGCUAGACUGCCUCUCUGGAUUCCUCGUCACUCAGCAGGGCAUCUCUGAGAGAAAUGCC : 1.31

self-cleavage reading for UACGUAGGUGGUUUUCCCCUGAUAGUGCUGAGGGGGCCUGGAAGUUUGGACUGGGCAGAGCUCAACACAGCGUGGCAAAGUGGCUGUGGCUAGACUGCCUCUCUGUAUUCCUCGUCACUCAGCAGGGCAUCUCUGAGAGAAAUGCC : 0.83

// UACGUAGGUGGUCUUCCCCUGAUAGUGCUAAGGGGGCCGGGAAGUUUGGACUGGGCAGAGCUCAACACAGCGUGGCAAAGUGGCUGUGGCUAGACUGCCUCUCUGGAUUCCUCGUCACUCAGCAGGGCAUCUCUGAGAGAAAUGCC : self-cleavage value = 1.54

Record UACGUAGGUGGUUUUCCCCUGAUAGUGCUAAGGGGGCCUGGAAGUUUGGACUGGGCGGAGCUCAACAAAGCGUGGCAAAGUGGCUGUGGCUAGACUGCCUCUCUGGAUUCCUCGUCACUCAGCAGGGCAUCUCUGAGAGAAAUGCC . Reported self-cleavage: 0.06

UACGUUGGUGGUUUUCCCCUGAUAGUGCUAAGGGGGCCAGGAAGUUUGGACUGGGCAGAGCUCAACACAGCGUGGCAAAGUGGCUGUGGCUAGACUGCCUCUCUGGAUUCCUCGUCACUCAGCAGGGCAUCUCUGAGAGAAAUGCC has a reported self-cleavage of 1.16

Documented self-cleavage of AACGUAGGUGGUUUUCCCCUGAUAGUGCUAAGGGGGCCUGGAAGUUUGGACUGGGCAGAGUUCAACACAGCGUGGCAAAGUGGCUGUGGCUAGACUGCCUCUCUGGAUUCCUCGUCACUCAGCAGGGCAUCUCUGAGAGAAAUGCC : 0.08
